System: SK-MEL-2 melanoma
assayNotes: NCI tumour cell line growth inhibition, 48 h
quantityMeasured: TGI (µM)
Number only, in µM; omit the unit.

Ask: So what's the measured TGI for this one? `O=C1c2ccccc2C(=O)c2c1c1cc(O)ccc1n2Cc1ccc(Cl)cc1Cl`
Result: 33.9

Ask: Also `COc1cc2c(cc1Nc1nc(Nc3ccsc3C(N)=O)c3cc[nH]c3n1)N(C(=O)CN(C)C)CCC2` , if possible.
Result: 4.58

Ask: Also CCN(CC)CCC(CNc1c2ccc(Cl)cc2nc2ccc(OC)cc12)c1ccccc1 (stereo not given) , if possible.
Result: 3.31

Ask: Also N#CC1=C(N)Oc2c(ccc3ccccc23)C1c1ccccc1Cl (stereo not given) , if possible.
Result: 18

Ask: Also `O=C(/C=C\c1ccc(Cl)c(Cl)c1)c1ccccc1` , if possible.
Result: 27.4

Ask: Also `COc1cc(C=Nc2ccc(Oc3ccc(Cl)cc3)c(Cl)c2)cc(OC)c1OC` , if possible.
Result: 45.9

Ask: Also `Cn1cc(C2=C(c3cn(CCCSC(=N)N)c4ccccc34)C(=O)NC2=O)c2ccccc21` , if possible.
Result: 5.2

Ask: Also `COc1ccc(N=Nc2ccc3oc(=O)c(C(=O)Nc4ccc(OC)cc4)cc3c2)cc1` , if possible.
Result: 39.5

Ask: Also `O=C1N[C@@H](c2c[nH]c3ccc(Br)cc23)C(=O)N[C@H]1c1c[nH]c2ccc(Br)cc12` , if possible.
Result: 29.4

Ask: Also `Fc1ccccc1N=c1oc2ccc(Br)cc2cc1-c1nc2ccccc2[nH]1` , if possible.
Result: 26.6

Ask: Also CCOC(=O)C(Cc1ccc(N(CCCl)CCCl)cc1)NC(=O)C(CC(C)C)NC(C)=O (stereo not given) , if possible.
Result: 5.13

Ask: Also Cc1ccc(CCNC(=S)SCC(NC(=O)CCC(N)C(=O)O)C(=O)NCC(=O)O)cc1 (stereo not given) , if possible.
Result: 1.45

----------
Tested on: OVCAR-4 ovarian
assayNotes: NCI tumour cell line growth inhibition, 48 h; in the data active means GI50 below about 0.43 µM; inactive means the rest
Hi! Could you answer with just one of these? active, inactive

Ask: Fill in: this test's call for `Oc1c(Br)cc(Br)c2cccnc12` is ___
Result: inactive

Ask: Also `NCCN.O=N[O-].O=N[O-].O=N[O-].O=N[O-].[Co+3].[K+]` , if possible.
Result: inactive

Ask: Also `O=C1/C(=C/c2ccc([N+](=O)[O-])s2)Oc2ccc(Cl)cc21` , if possible.
Result: active

Ask: Also CCOC(=O)c1ccccc1NC(c1ccccc1)c1ccc2cccnc2c1O (stereo not drawn) , if possible.
Result: inactive

Ask: Also `Cc1cc(N2CCOCC2)nc(N(CCNc2ccnc3cc(Cl)ccc23)Cc2cccs2)n1` , if possible.
Result: inactive

Ask: Also N#CC1=C(N)Oc2c(ccc3ccccc23)C1c1ccccc1Cl (stereo not drawn) , if possible.
Result: inactive

Ask: Also `Cc1nc2cc(NC(=O)CN3CCN(CCN4C(=O)c5cccc6cccc(c56)C4=O)CC3)ccc2s1` , if possible.
Result: inactive

Ask: Also CCN(CC)CCC(CNc1c2ccc(Cl)cc2nc2ccc(OC)cc12)c1ccccc1 (stereo not drawn) , if possible.
Result: inactive

----------
System: BT-549 breast
assayNotes: NCI tumour cell line growth inhibition, 48 h
quantityMeasured: TGI

Ask: So what's the measured TGI for this one? `Cc1ccc(-c2cn3c(nc4ccccc43)c(C)n2)cc1`
Result: > 89.4 µM

Ask: Also `C=CCn1c(=O)c(-c2ccccc2)c(O)c2ccccc21` , if possible.
Result: > 100 µM

Ask: Also `COc1ccc(-c2nccn2-c2cc(OC)c(OC)c(OC)c2)cc1` , if possible.
Result: > 100 µM
